Test system: SK-MEL-5 melanoma
measurement_protocol: NCI tumour cell line growth inhibition, 48 h; in the data active = GI50 below about 0.43 µM; inactive = the rest
Possible outcomes: active, inactive

- molecule: "N#Cc1nn(-c2cc(=O)[nH]c3ccc(Br)cc23)c(N)c1C#N"
  assigned_label: "inactive"
- molecule: "COc1ccc2c(c1)C(=O)c1c-2c(NCCN(C)C)nc2ccccc12"
  assigned_label: "inactive"
- molecule: "Cc1ccc(C2=NN(c3ccc(S(N)(=O)=O)cc3)C(c3cn(-c4ccccc4)nc3-c3ccccc3)C2)cc1 (stereo unspecified)"
  assigned_label: "inactive"
- molecule: "Cc1nn(C)c2cc(N(C)c3ccnc(Nc4cccc(S(N)(=O)=O)c4)n3)ccc12"
  assigned_label: "inactive"
- molecule: "COc1cc2c(cc1OCCCN1CCN(c3ncnc4ccccc34)CC1)N=CC1CCCN1C2=O (stereo unspecified)"
  assigned_label: "active"
- molecule: "Nc1c2ccccc2nc2ccccc12 (tested in a mixture with another compound)"
  assigned_label: "inactive"
- molecule: "Nc1ccccc1C#Cc1ccccc1C#Cc1cnccn1"
  assigned_label: "inactive"
- molecule: "Cc1c(-c2nnc(-c3cc(Cl)c(Cl)cc3Cl)o2)nnn1-c1ccnc2c(C(F)(F)F)cccc12"
  assigned_label: "inactive"
- molecule: "COC1=C(OC)[C@]2(OC)c3c(O)c(OC)c4c(c3O[C@@]23O[C@@H](c2ccccc2)CC=C3C1=O)[C@@H](O)C[C@H](c1ccccc1)O4"
  assigned_label: "inactive"
- molecule: "COc1ccc2nc3ccccc3c(NCc3ccc(C)cc3)c2c1"
  assigned_label: "inactive"
- molecule: "Nc1ccc(-c2ccc(-c3nc4cc(Cl)c(Cl)cc4[nH]3)cc2)cc1"
  assigned_label: "inactive"

====

Test system: DU-145 prostate
measurement_protocol: NCI tumour cell line growth inhibition, 48 h
// values below are reported TGI

- compound: "CC(C)NC(=O)OCc1c(COC(=O)NC(C)C)c(-c2ccc[n+](COC(=O)C(C)(C)C)c2)n2c1CCC2"
  TGI: "> 100 µM"
- compound: "C=C(C)[C@@H]1CC[C@]2(C(N)=O)CC[C@]3(C)[C@H](CC[C@@H]4[C@@]5(C)C/C(=C/c6cccnc6)[C@H](O)C(C)(C)[C@@H]5CC[C@]43C)[C@@H]12"
  TGI: "> 100 µM"
- compound: "COc1ccc(C)cc1Nc1nnc(-c2ccc(N)cc2)s1"
  TGI: "> 100 µM"
- compound: "CCOP(=O)(OCC)C(F)(F)Cc1cnc(C)c2c1COC(C)(C)O2"
  TGI: "> 10 µM"
- compound: "Cn1c(=O)c2c(nc(NCCNc3nc4c(c(=O)n(C)c(=O)n4C)n3C)n2C)n(C)c1=O"
  TGI: "> 100 µM"
- compound: "CCOC(=O)c1cc(Br)c(-c2onc(C)c2Br)n1C"
  TGI: "> 100 µM"
- compound: "O=C1C=C2CC[C@H]3[C@@H]4CC[C@H](OC(=O)c5cccc6cc7ccccc7nc56)[C@H]4CC[C@@H]3[C@H]2CC1"
  TGI: "> 100 µM"
- compound: "N#CC1(C#N)C(c2ccccc2)C=CC(c2ccc([N+](=O)[O-])cc2)C1(C#N)C#N (stereo not drawn)"
  TGI: "27.3 µM"
- compound: "CC(=O)CCC[C@H](C)[C@@H](O)[C@@H]1O[C@H]([C@@]2(C)CCC(=O)O2)C[C@H]1C(=O)O"
  TGI: "> 100 µM"
- compound: "COc1cc2c(cc1OC)C(=O)/C(=C/c1ccc([N+](=O)[O-])cc1)CC2"
  TGI: "> 10 µM"
- compound: "COc1ccc2c(c1)CC[C@@H]1[C@@H]2CC[C@]2(C)C(=O)/C(=C/c3ccc(O)c(OC)c3)C[C@@H]12"
  TGI: "> 100 µM"
- compound: "CCO/C=C(\\C(=O)OC)S(=O)(=O)c1ccc(C)cc1"
  TGI: "> 100 µM"
- compound: "CC1(O)Oc2ccc3ccccc3c2C=C1C(N)=O (stereo not drawn)"
  TGI: "> 100 µM"

====

In this section, each of the compounds is paired with its reported TGI.
Tested on: SF-268 CNS
measurement_protocol: NCI tumour cell line growth inhibition, 48 h

- compound: "N#CSc1ccc(S(N)(=O)=O)cc1"
  TGI: "> 100 µM"
- compound: "COc1ccccc1NC(=O)C(CC(C(=O)Nc1ccccc1OC)/C(C)=N/NC(=O)c1ccccc1O)/C(C)=N/NC(=O)c1ccccc1O (stereo not given)"
  TGI: "> 100 µM"
- compound: "CC1=CC(=O)c2ccc(C)cc2C1=O"
  TGI: "38.4 µM"
- compound: "CC(C)(C)c1cc(-c2nc3c(F)c(F)c(F)c(F)c3[nH]2)cc(C(C)(C)C)c1O"
  TGI: "> 100 µM"
- compound: "c1ccc2c3c(ccc2c1)-c1c(ccc2c(NCCCCN4CCCCC4)cccc12)C3"
  TGI: "2.25 µM"
- compound: "C=C(CN)CO[Si](C)(C)C(C)(C)C"
  TGI: "> 100 µM"
- compound: "O=C1OC(CS(=O)(=O)c2ccccc2)CC1O (stereo not given)"
  TGI: "> 100 µM"
- compound: "CCOC(=O)c1ccc(Nc2nc3cc(C(F)(F)F)ccc3nc2C(=O)OCC)cc1"
  TGI: "> 100 µM"
- compound: "CCOCCOC[C@H]1CCCN(c2ccnc3sc(C(N)=O)c(N)c23)C1"
  TGI: "> 100 µM"
- compound: "COc1ccc(C2C(C=O)C(N3CCN(C)CC3)=Nc3nc4ccccc4n32)cc1 (stereo not given)"
  TGI: "51.6 µM"
- compound: "CCN(CC)C(=S)SS(=O)(=O)c1ccc(NC(C)=O)cc1"
  TGI: "> 70.2 µM"
- compound: "Cc1ccccc1NC(=O)c1ccc([N+](=O)[O-])cc1"
  TGI: "> 100 µM"
- compound: "FC(F)(F)c1nc(-c2ccccc2)oc1Sc1oc(-c2ccccc2)nc1C(F)(F)F"
  TGI: "> 100 µM"
- compound: "Fc1c(F)c(C(F)(F)F)c(F)c(F)c1N/N=C/c1cn(Cc2ccccc2)c2ccccc12"
  TGI: "> 100 µM"
- compound: "N#CC1(C#N)C(c2ccccc2)C=CC(c2ccc([N+](=O)[O-])cc2)C1(C#N)C#N (stereo not given)"
  TGI: "51.6 µM"
- compound: "C#CCCOC(=O)c1ccccc1OC(C)=O"
  TGI: "> 100 µM"
- compound: "CC(C)C1COC(c2ccc3ccccc3c2-c2c(O[Si](C)(C)C(C)(C)C)ccc3ccccc23)=N1 (stereo not given)"
  TGI: "34.7 µM"
- compound: "FC(F)(F)c1cccc(C2SCc3nc4ccccc4n32)c1 (stereo not given)"
  TGI: "> 100 µM"
- compound: "Clc1ccc2c(NCCNc3nc(N4CCCC4)nc4ccccc34)ccnc2c1"
  TGI: "5.41 µM"
- compound: "O=c1c2cc(S(=O)(=O)Nc3c(Cl)cccc3Cl)ccc2ncn1NS(=O)(=O)c1ccc2ccccc2c1"
  TGI: "> 62.5 µM"
- compound: "Nc1ccccc1C#Cc1ccccc1C#Cc1cnccn1"
  TGI: "25.1 µM"
- compound: "COc1cc(Nc2nc3cc(C(F)(F)F)ccc3nc2C)cc(OC)c1OC"
  TGI: "33.5 µM"
- compound: "CNC(=O)Nc1ccccc1"
  TGI: "> 100 µM"
- compound: "CCN(CC)CCCCC1CCN(CC(=O)N2c3cc(Cl)ccc3NC(=O)CC2C)CC1 (stereo not given)"
  TGI: "> 100 µM"
- compound: "Cc1ccc(NC(=O)CC2C(=O)Nc3ccccc3S2=O)c(C)c1 (stereo not given)"
  TGI: "65.3 µM"
- compound: "C[C@]12CCC(=O)C=C1CC[C@@H]1[C@@H]2[C@@H](O)C[C@@]2(C)[C@H]1CC[C@]2(O)C(=O)COC(=O)C1CCCC1"
  TGI: "> 100 µM"
- compound: "Nc1nc(=O)n(CC(O)CO)s1 (stereo not given)"
  TGI: "> 100 µM"
- compound: "N#CCc1nc(-c2cc3c(ccc4ccccc43)oc2=O)cs1"
  TGI: "> 100 µM"
- compound: "CCN1CCN(c2ccc(Nc3ncc4ccc5ncn(C(C)C)c5c4n3)nc2)CC1"
  TGI: "0.47 µM"
- compound: "CC1C(O)Oc2cc3c(cc2C1c1ccccc1O)OCO3 (stereo not given)"
  TGI: "> 100 µM"
- compound: "CC[C@H]1C=CCC[C@@]2(C[C@@H]3CC[C@H]4[C@H](C(=O)OCCCCCCCCCCCCCCCC(=O)N(CCCN)C[C@@H](O)CCN)[C@]5(CCC[C@@H](C)O5)NC(=[N+]34)N2)O1"
  TGI: "3.46 µM"
- compound: "O=c1[nH]c2cc([N+](=O)[O-])ccc2nc1/C=C(\\O)c1ccc(Cl)cc1"
  TGI: "53.8 µM"
- compound: "Cn1c(=O)c2c(nc3n(C)c(=O)c4ccccc4n23)n(C)c1=O"
  TGI: "> 100 µM"
- compound: "COC(=O)/C=C1/OC(c2ccc(C)cc2)=C(Cl)C1=O"
  TGI: "41.6 µM"
- compound: "Cc1cc(N(CCOS(C)(=O)=O)CCOS(C)(=O)=O)ccc1C=Nc1ccc(-c2csc(-c3ccc(Br)cc3)n2)cc1"
  TGI: "> 80.2 µM"
- compound: "CCCc1c(C(=O)OCC)[nH]c(C(=O)CCC(=O)c2[nH]c(C(=O)OCC)c(CCC)c2C(=O)OCC)c1C(=O)OCC"
  TGI: "> 100 µM"
- compound: "O=C(c1ccccc1)C1C[C@H]2CO[C@H](c3ccccc3)N2C1=O (stereo not given in full)"
  TGI: "> 100 µM"
- compound: "O=C1C=C2CC[C@H]3[C@@H]4CC[C@H](OC(=O)c5cccc6cc7ccccc7nc56)[C@H]4CC[C@@H]3[C@H]2CC1"
  TGI: "> 100 µM"
- compound: "O=C(COc1ccc(Cl)cc1Cl)N/N=C/C=C/c1ccc([N+](=O)[O-])o1"
  TGI: "> 100 µM"
- compound: "CN(C)c1nc(=NCc2cccnc2)ss1"
  TGI: "> 10 µM"
